Target: T1, PTK7 on the SK-OV-3 cell line (human ovarian cancer cells) (human, UniProt Q13308 31-1070)
T1 construct: whole, on cells
T1 sequence (looked up): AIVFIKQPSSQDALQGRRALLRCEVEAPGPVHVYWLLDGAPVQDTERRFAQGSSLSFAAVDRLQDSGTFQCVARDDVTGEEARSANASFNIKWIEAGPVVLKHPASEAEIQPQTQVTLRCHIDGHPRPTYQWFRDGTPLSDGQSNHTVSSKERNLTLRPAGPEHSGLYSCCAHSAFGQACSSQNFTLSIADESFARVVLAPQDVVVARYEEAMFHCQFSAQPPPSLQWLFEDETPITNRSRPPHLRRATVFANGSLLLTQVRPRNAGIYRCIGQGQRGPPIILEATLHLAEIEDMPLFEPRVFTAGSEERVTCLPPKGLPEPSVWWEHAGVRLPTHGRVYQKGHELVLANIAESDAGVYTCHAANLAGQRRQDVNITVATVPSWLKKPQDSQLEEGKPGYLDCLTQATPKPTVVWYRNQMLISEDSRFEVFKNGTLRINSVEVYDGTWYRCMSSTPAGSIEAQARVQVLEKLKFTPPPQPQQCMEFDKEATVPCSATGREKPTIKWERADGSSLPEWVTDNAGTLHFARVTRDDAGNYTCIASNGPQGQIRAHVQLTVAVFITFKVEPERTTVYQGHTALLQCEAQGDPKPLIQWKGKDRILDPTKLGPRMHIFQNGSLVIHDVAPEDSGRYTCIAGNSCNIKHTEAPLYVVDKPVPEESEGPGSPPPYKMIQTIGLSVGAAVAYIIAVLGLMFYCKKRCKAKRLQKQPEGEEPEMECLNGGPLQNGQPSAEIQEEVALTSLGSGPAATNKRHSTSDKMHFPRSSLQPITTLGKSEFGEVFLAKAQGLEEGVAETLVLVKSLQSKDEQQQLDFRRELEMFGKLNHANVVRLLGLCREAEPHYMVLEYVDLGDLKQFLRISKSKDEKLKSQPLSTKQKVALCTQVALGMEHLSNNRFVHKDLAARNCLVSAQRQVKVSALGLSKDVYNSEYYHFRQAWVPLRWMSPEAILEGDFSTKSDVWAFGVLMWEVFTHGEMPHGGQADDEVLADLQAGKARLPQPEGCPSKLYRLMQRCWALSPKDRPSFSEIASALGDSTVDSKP
Assay: flow cytometry on SK-OV-3 cells, FITC goat anti-human secondary antibody, MFI
metric name: pEC50
Quick note: pEC50 means taking -log10 of the concentration in moles per liter.

Worked examples follow.
[
  {
    "binder": "humanized PTK7 antibody Hu13H3L5 (antibody, V domains shown) VH: QVQLVQSGAEVKKPGASVKISCKGSGYTFTDYGMHWLKQAPGQGLEWIGVISPYYGDVNYNQKFQGRATMTVDKSISTAYMELSRLRSDDTAVYYCARGMGYWGQGTLVTVSS VL: DVQITQSPSYLSASPGDRITITCRASQSISKYLAWYQQKPGKANKLLIYSGSTLQSGVPSRFSGSGSGTEFTLTISSLQPEDFAMYYCQQHNEYPWTFGQGTKVEIK",
    "pEC50": 9.79
  },
  {
    "binder": "humanized PTK7 antibody Hu13H2L0 (antibody, V domains shown) VH: QVQLVQSGAEVKKPGASVKVSCKGSGYTFTDYGMHWLRQAPGQGLEWMGVISPYYGDVNYNQKFQGRVTMTRDKSISTAYMELSRLRSDDTVVYYCARGMGYWGQGTLVTVSS VL: DIQLTQSPSFLSASVGDRVTITCRASQSISKYLAWYQQKPGKAPKLLIYSGSTLQSGVPSRFSGSGSGTEFTLTISSLQPEDFATYYCQQHNEYPWTFGQGTKVEIK",
    "pEC50": 9.79
  },
  {
    "binder": "human-murine chimeric PTK7 antibody ch13 (antibody, V domains shown) VH: QVQLQQSGAELVRPGVSVKISCKGSGYTFTDYGMHWLKQSHAKSLEWIGVISPYYGDVTYNQKFKGKATMTVDKSSSTAYMELARLTSEDSAIYYCARGMGYWGQGTSVTVSS VL: DVQITQSPSYLAASPGETITINCRASQSISKYLAWYQEKPGKTNKLLIYSGSTLQSGIPSRFSGSGSGTDFTLTISSLEPEDFAMYYCQQHNEYPWTFGGGTKLEIK",
    "pEC50": 9.72
  }
]

Task: pEC50 for humanized PTK7 antibody Hu13H2L3 (antibody, V domains shown) VH: QVQLVQSGAEVKKPGASVKVSCKGSGYTFTDYGMHWLRQAPGQGLEWMGVISPYYGDVNYNQKFQGRVTMTRDKSISTAYMELSRLRSDDTVVYYCARGMGYWGQGTLVTVSS VL: DVQITQSPSFLSASVGDRVTITCRASQSISKYLAWYQQKPGKAPKLLIYSGSTLQSGVPSRFSGSGSGTEFTLTISSLQPEDFAMYYCQQHNEYPWTFGQGTKVEIK ?
Output: 9.67
